# Tested on: normal human plasma
# assay.protocol: Activated partial thromboplastin times (APTT), blood coagulation in vitro
# Format: biochemical
# test.parameters: inhibitor 350 nM
property: Activated Partial Thromboplastin Times (s)
Field format: number, assumed s, no unit text.

See these solved cases before continuing.
• Br.CC(C)(C)OC(=O)NC(Cc1ccccc1)C(=O)NC(Cc1ccccc1)C(=O)NC(CCCSC(=N)N)B1OC2CC3CC(C3(C)C)C2(C)O1 (stereo not shown) = 75.7
• Br.CC(=O)NC(Cc1ccccc1)C(=O)NC(CCCSC(=N)N)B1OC2CC3CC(C3(C)C)C2(C)O1 (stereo not shown) = 66.7
• CC1(C)C2CC3OB(C(CCCN=C(N)N)NC(=O)C4CCCN4C(=O)C(N)Cc4ccccc4)OC3(C)C1C2.Cl.Cl (stereo not drawn) [B, H-(D)Phe-Pro-boroArg-C10 H16.2HCl] = 249.7
• CC(C)(C)OC(=O)N[C@H](Cc1ccccc1)C(=O)N[C@@H](Cc1ccccc1)C(=O)N[C@@H](CCCNC(=N)N)B1OC2CC3CC(C3(C)C)C2(C)O1.O=S(=O)(O)c1ccccc1 (stereo partly shown) = 54.8
• CC(=O)NC(Cc1ccccc1)C(=O)NC(CCCNC(=N)N)B1OC2CC3CC(C3(C)C)C2(C)O1.Cl (stereo not shown) [Compound F, Ac-Phe-boroArg-C10 H16.HCl] = 58.2
• CC(C)(C)OC(=O)NC(Cc1ccccc1)C(=O)N1CCCC1C(=O)NC(CCCN=C(N)N)B1OC2CC3CC(C3(C)C)C2(C)O1.O=S(=O)(O)c1ccccc1 (stereo not shown) = 128.7

In the following, a different compound is considered.
# input compound: Br.CC(C)(C)OC(=O)NC(Cc1ccccc1)C(=O)N1CCCC1C(=O)NC(CCCSC(=N)N)B1OC2CC3CC(C3(C)C)C2(C)O1 (stereo not shown) ; wanted: its Activated Partial Thromboplastin Times
301.8

----------
# system.tested: Human plasma kallikrein (Homo sapiens)
# Construct: purchased Protogen AG (Switzerland)
# Sequence (P03952 391-638 limits assumed): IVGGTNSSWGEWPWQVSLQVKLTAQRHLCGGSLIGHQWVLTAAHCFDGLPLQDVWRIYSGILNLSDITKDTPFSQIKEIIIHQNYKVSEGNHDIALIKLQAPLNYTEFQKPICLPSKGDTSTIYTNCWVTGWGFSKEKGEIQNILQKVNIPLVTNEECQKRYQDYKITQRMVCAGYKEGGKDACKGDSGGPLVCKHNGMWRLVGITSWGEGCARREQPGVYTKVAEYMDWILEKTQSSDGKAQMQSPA
# Sequence (P03952 20-390 partner limits assumed): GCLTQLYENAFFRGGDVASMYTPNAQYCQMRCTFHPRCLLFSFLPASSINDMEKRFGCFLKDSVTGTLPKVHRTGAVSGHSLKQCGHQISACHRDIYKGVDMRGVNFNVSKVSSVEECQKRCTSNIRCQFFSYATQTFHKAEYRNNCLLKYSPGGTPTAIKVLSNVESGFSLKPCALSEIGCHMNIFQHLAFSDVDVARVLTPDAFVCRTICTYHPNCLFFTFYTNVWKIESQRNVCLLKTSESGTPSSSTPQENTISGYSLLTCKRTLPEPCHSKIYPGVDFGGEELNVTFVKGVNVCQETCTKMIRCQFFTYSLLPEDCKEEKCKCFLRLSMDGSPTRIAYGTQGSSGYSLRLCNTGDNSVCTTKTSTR
# assay.protocol: Inhibition of Human Plasma Kallikrein
# Format: biochemical
# test.parameters: inhibitor 10 nM; activity remaining 10 to 20 min after initiation
property: Percent Activity (%)
Enter your answer as a number in %; do not include the unit.

Previously resolved entries follow.
- Br.CC(C)(C)OC(=O)NC(Cc1ccccc1)C(=O)NC(Cc1ccccc1)C(=O)NC(CCCSC(=N)N)B1OC2CC3CC(C3(C)C)C2(C)O1 (stereo not drawn) [Compound D, Boc-(D)Phe-Phe-boroIrg-C10 H16.HBr]: 2
- CC1(C)C2CC3OB(C(CCCNC(=N)N)NC(=O)C(Cc4ccccc4)NC(=O)C(N)Cc4ccccc4)OC3(C)C1C2.Cl.Cl (stereo not drawn) [H--(D)Phe--Phe--boroArg--C10 H16.2HCl, H-(D)Phe-Phe-boroArg-C10 H16.2HCl]: 2.6
- CC(=O)NC(Cc1ccccc1)C(=O)N1CCCC1C(=O)NC(CCCNC(=N)N)B1OC2CC3CC(C3(C)C)C2(C)O1.Cl (stereo not drawn) [Ac--(D)Phe--Pro--boroArg--C10 H16.HCl, Ac-(D)Phe-Pro-boroArg-C10 H16.HCl]: 56

Suppose we examine the compound CC1(C)C2CC3OB(C(CCCN=C(N)N)NC(=O)C4CCCN4C(=O)C(N)Cc4ccccc4)OC3(C)C1C2.Cl.Cl (stereo not drawn) [B, H-(D)Phe-Pro-boroArg-C10 H16.2HCl] ; what Percent Activity value has been reported?
61
